B1: Homeobox protein cut-like 1, residues 548 to 629; numbered along this chain, P39880 (parent)
chain: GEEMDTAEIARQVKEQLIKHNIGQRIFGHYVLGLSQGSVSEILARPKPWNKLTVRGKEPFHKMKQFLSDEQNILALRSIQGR

# Variants of: B1
# PROTOCOL_DESCRIPTION: abundance fitness (aPCA) (normalised: wild type 0, dead -1); higher = more abundant; growth selection in yeast, the domain comes from the species named
# CONDITIONS: Homo sapiens
I'd be grateful if you could share measured abundance fitness for these entries.

Request: Need abundance fitness, item `L67W`
Result: -0.817

Request: Record: `G56I`
Result: -0.282

Request: Record: `A10E`
Result: -0.822

Request: Record: `P48V`
Result: -0.374

Request: Record: `A7P`
Result: -0.532

Request: Record: `L67F`
Result: -0.341

Request: Record: `V54S`
Result: -0.033

Request: Record: `I42L`
Result: -0.013

Request: Record: `I26Y`
Result: -0.107

Request: Record: `F27T`
Result: -0.914

Request: Record: `P59C`
Result: 0.1

Request: Record: `S38N`
Result: -0.027

Request: Record: `K47R`
Result: -0.072

Request: Record: `K62M`
Result: -0.231

Request: Record: `P59K`
Result: -0.034

Request: Record: `R11W`
Result: -0.506

Request: Record: `N50M`
Result: -0.23

Request: Record: `Y30H`
Result: 0.014

Request: Record: `L17P`
Result: -0.538

Request: Record: `L43V`
Result: -0.769

Request: Record: `I42Y`
Result: -0.351

Request: Record: `G1F`
Result: -0.104

Request: Record: `N50D`
Result: -0.103

Request: Record: `Q36N`
Result: -0.048

Request: Record: `D5E`
Result: -0.163

Request: Record: `E58H`
Result: -0.618

Request: Record: `G37P`
Result: -0.084

Request: Record: `L32E`
Result: -0.792

Request: Record: `G28E`
Result: -0.188

Request: Record: `S40I`
Result: -0.117

Request: Record: `S35L`
Result: -0.384

Request: Record: `S78Y`
Result: -0.223

Request: Record: `S40Q`
Result: 0.017

Request: Record: `I18A`
Result: 0.007

Request: Record: `E8T`
Result: -0.118

Request: Record: `S78A`
Result: 0.042

Request: Record: `G33F`
Result: -0.883

Request: Record: `V54R`
Result: -0.028

Request: Record: `V39P`
Result: -0.642

Request: Record: `R25F`
Result: -0.096

Request: Record: `N21P`
Result: -0.72

Request: Record: `L17Y`
Result: -0.842

Request: Record: `R45L`
Result: -0.274

Request: Record: `I73A`
Result: -0.019

Request: Record: `L43W`
Result: -0.743

Request: Record: `K51N`
Result: 0.012

Request: Record: `M63A`
Result: -0.677

Request: Record: `E58P`
Result: -0.819

Request: Record: `R45K`
Result: -0.006

Request: Record: `L32F`
Result: -0.988

Request: Record: `L52S`
Result: -0.97

Request: Record: `F60V`
Result: -0.911

Request: Record: `L32K`
Result: -0.986

Request: Record: `P48N`
Result: -0.446

Request: Record: `L76P`
Result: -0.586

Request: Record: `L43H`
Result: -1.04

Request: Record: `L52Y`
Result: -0.602

Request: Record: `L76S`
Result: -0.697

Request: Record: `M4S`
Result: -0.355

Request: Record: `E58T`
Result: -0.255

Request: Record: `D5Y`
Result: -0.561

Request: Record: `K57R`
Result: 0.013

Request: Record: `S35R`
Result: -0.209

Request: Record: `G81Y`
Result: -0.163

Request: Record: `S78D`
Result: 0.097

Request: Record: `I26T`
Result: 0.009

Request: Record: `L67S`
Result: -1.01

Request: Record: `K62G`
Result: -0.729

Request: Record: `V13G`
Result: -0.53

Request: Record: `H20C`
Result: -0.466

Request: Record: `E2Q`
Result: -0.126

Request: Record: `R77P`
Result: -0.419

Request: Record: `D5Q`
Result: -0.226

Request: Record: `T53M`
Result: -0.45

Request: Record: `L17D`
Result: -0.774

Request: Record: `L76A`
Result: -0.638

Request: Record: `N50G`
Result: -0.129

Request: Record: `I73Y`
Result: -0.627

Request: Record: `I79F`
Result: -0.086

Request: Record: `M63F`
Result: -0.753

Request: Record: `F27I`
Result: -0.8

Request: Record: `M4C`
Result: -0.677

Request: Record: `E8G`
Result: -0.233

Request: Record: `P48Q`
Result: -0.247

Request: Record: `F66I`
Result: -0.573

Request: Record: `W49L`
Result: -0.506

Request: Record: `G81S`
Result: -0.028

Request: Record: `S68M`
Result: -0.083

Request: Record: `A7Y`
Result: -0.093

Request: Record: `S40P`
Result: -0.258

Request: Record: `S35W`
Result: -0.311
